target: glutathione-S-transferase (GST) tagged LXRalpha LBD (ligand binding domain) (Homo sapiens); construct: purchased Invitrogen pv4655; experiment: LanthaScreen TR-FRET Liver X Receptor Coactivator Assay, LXR alpha-LBD; assay type: biochemical; conditions: efficacy in relation to reference dual agonist T1317; read-out: LXR alpha activity at max dose (%) (Emax)
Sequence (Q13133 209-447 limits assumed): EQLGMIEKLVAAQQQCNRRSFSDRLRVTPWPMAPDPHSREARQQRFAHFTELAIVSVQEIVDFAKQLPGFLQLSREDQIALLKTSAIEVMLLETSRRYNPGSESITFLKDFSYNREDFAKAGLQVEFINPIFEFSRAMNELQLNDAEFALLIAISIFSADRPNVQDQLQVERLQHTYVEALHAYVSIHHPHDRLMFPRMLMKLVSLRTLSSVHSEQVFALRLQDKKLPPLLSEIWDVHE
measurement_label: Emax (%)
Only the number, expressed in %, is required.

Some entries whose results are on file:
[
  {
    "compound": "CC(C)C(O)(C(=O)N1CCN(c2ncc(-c3cc(Cl)c(C(=O)N(C)C)c(Cl)c3)cc2C#N)CC1)C(F)(F)F (single isomer, unassigned) [Example 7-5]",
    "observed_value": 41
  },
  {
    "compound": "CC(C)(C)OC(=O)N1CCN(c2ncc(-c3ccc(C(=O)N4CCCCC4)c(Cl)c3)cc2C#N)CC1 [Example 5-11]",
    "observed_value": 89
  },
  {
    "compound": "CN(C)C(=O)c1ccc(-c2ccc(N3CCN(C(=O)c4c(F)cccc4F)CC3)cc2)cc1Cl [Example 4-16]",
    "observed_value": 19
  },
  {
    "compound": "CN(C)C(=O)c1c(Cl)cc(-c2cnc(N3CCN(C(=O)[C@](O)(c4ccccc4)C(F)(F)F)CC3)c(C#N)c2)cc1Cl [Example 7-1]",
    "observed_value": 53
  },
  {
    "compound": "CN(C)C(=O)c1ccc(-c2ccc(N3CC4CCC3CN4C(=O)OC(C)(C)C)c(Cl)c2)cc1Cl (stereo not drawn) [Example 4-3]",
    "observed_value": 79
  }
]

Return value of Emax for input CN(C)C(=O)c1ccc(-c2cnc(N3CCN(C(=O)OC(C)(C)C)CC3)c(C#N)c2)cc1C1CC1 [Example 9-4] , no commentary.
39

Return value of Emax for input CC(C)COC(=O)N1CCN(c2ncc(-c3ccc(C(=O)N(C)C)c(Cl)c3)cc2C#N)CC1 [Example 3-2] , no commentary.
19

Return value of Emax for input Cc1cc(CC(=O)N2CCN(c3ncc(-c4ccc(C(=O)N(C)C)c(Cl)c4)cc3C#N)CC2)on1 [Example 2-8] , no commentary.
5

Return value of Emax for input CN(C)C(=O)c1c(Cl)cc(-c2cnc(N3CC4CCC(C3)N4C(=O)OC(C)(C)C)c(C#N)c2)cc1Cl [Example 7-3] , no commentary.
21

Return value of Emax for input CNC(=O)c1ccc(-c2cnc(N3CCN(C(=O)OC(C)(C)C)CC3)c(C#N)c2)cc1Cl [Example 5-3] , no commentary.
76

Return value of Emax for input CN(C)C(=O)c1ccc(-c2cnc(N3CCN(S(=O)(=O)Cc4ccccc4F)CC3)c(C#N)c2)cc1Cl [Example 1-10] , no commentary.
18

Return value of Emax for input CNC(=O)c1ccc(-c2cnc(N3CCN(C(=O)C(C)(C)C)CC3)c(C#N)c2)cc1Cl [Example 6-2] , no commentary.
34

Return value of Emax for input CN(C)C(=O)c1ccc(-c2cnc(N3CCN(C(=O)Cc4ccccc4)CC3)c(C#N)c2)cc1Cl [Example 2-7] , no commentary.
54

Return value of Emax for input CCC(C)(C)C(=O)N1CCN(c2ncc(-c3ccc(C(=O)N(C)C)c(Cl)c3)cc2C#N)CC1 [Example 2-5] , no commentary.
62

Return value of Emax for input CN(C)C(=O)c1ccc(-c2cnc(N3CCN(S(=O)(=O)C4CC4)CC3)c(C#N)c2)cc1Cl [Example 1-2] , no commentary.
37
